Parameter pIC50, tested on HCoV-229E 3CLpro (Human coronavirus 229E), listed per item.
Sequence (P0C6X1 2966-3267): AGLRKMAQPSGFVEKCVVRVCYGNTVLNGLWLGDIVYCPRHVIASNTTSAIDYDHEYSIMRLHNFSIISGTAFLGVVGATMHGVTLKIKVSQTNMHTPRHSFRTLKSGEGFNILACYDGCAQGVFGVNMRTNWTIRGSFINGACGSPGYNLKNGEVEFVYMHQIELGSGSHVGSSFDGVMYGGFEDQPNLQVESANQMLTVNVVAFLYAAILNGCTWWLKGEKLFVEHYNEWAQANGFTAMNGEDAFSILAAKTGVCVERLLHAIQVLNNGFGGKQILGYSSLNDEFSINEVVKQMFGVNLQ
Convention used: pIC50 is expressed as -log10 of the molar concentration.

CC(C)(C)[C@H](NC(=O)C1CC1(F)F)C(=O)N1C[C@@H]2CCC[C@@H]2[C@H]1C(=O)NN(C[C@@H]1CCNC1=O)C(=O)[C@H](F)Cl (mixture of isomers) [Example 34]; 7.64
CCC[C@H](NC(=O)C(F)(F)F)C(=O)N1C[C@@H]2CCC[C@@H]2[C@H]1C(=O)NN(C[C@@H]1CCNC1=O)C(=O)[C@H](F)Cl [Example 78]; 7.64
CC(C)(C)[C@H](NC(=O)C1(F)CCC1)C(=O)N1C[C@H]2[C@@H]([C@H]1C(=O)NN(C[C@@H]1CCNC1=O)C(=O)[C@H](F)Cl)C2(C)C [Example 91]; 7.41
CC(C)(C)[C@H](NC(=O)[C@H]1CC1(F)F)C(=O)N1C[C@H]2[C@@H]([C@H]1C(=O)NN(C[C@@H]1CCNC1=O)C(=O)[C@@H](F)Cl)C2(C)C [Example 96]; 7.60

# next compound below
q: Query for HCoV-229E 3CLpro (Human coronavirus 229E): what pIC50 does the record show for CC(C)(C)[C@H](NC(=O)C(F)(F)F)C(=O)N1C[C@@H]2C[C@@H]2[C@H]1C(=O)NN(C[C@@H]1CCNC1=O)C(=O)[C@H](F)Cl [Example 9] ?
a: 6.03

---

- testSystem: SARS-CoV 3CLpro (Severe acute respiratory syndrome coronavirus, UniProt P0C6X7)
valueType: IC50 (nM)
Give the value in nM but do not write nM after it.

CC[C@@H](C)[C@H](NC(=O)[C@H](C)F)C(=O)N1C[C@H]2[C@@H]([C@H]1C(=O)NN(C[C@@H]1CCNC1=O)C(=O)[C@H](F)Cl)C2(C)C; 11
CC[C@H](C)[C@H](NC(=O)C1CC1(F)F)C(=O)N1C[C@H]2[C@@H]([C@H]1C(=O)NN(C[C@@H]1CCNC1=O)C(=O)[C@H](F)Cl)C2(C)C (mixture of isomers); 13
CC[C@H](C)[C@H](NC(=O)[C@H](F)Cl)C(=O)N1C[C@H]2[C@@H]([C@H]1C(=O)NN(C[C@H]1CCCNC1=O)C(=O)[C@H](F)Cl)C2(C)C; 25
CC(C)(C)C[C@H](NC(=O)C1(F)CC1)C(=O)N1C[C@H]2[C@@H]([C@H]1C(=O)NN(C[C@@H]1CCNC1=O)C(=O)[C@H](F)Cl)C2(C)C; 15
CC[C@H](C)[C@H](NC(=O)C1(F)CC1)C(=O)N1C[C@@H]2CCC[C@@H]2[C@H]1C(=O)NN(C[C@@H]1CCNC1=O)C(=O)[C@H](F)Cl; 11

q: # IC50 lookup, item CC(C)(C)[C@H](NC(=O)C1CC(F)(F)C1)C(=O)N1C[C@H]2[C@@H]([C@H]1C(=O)NN(C[C@@H]1CCNC1=O)C(=O)[C@H](F)Cl)C2(C)C
a: 12

q: # IC50 lookup, item CC[C@H](C)[C@H](NC(=O)C1(C)CC1)C(=O)N1C[C@H]2[C@@H]([C@H]1C(=O)NN(C[C@@H]1CCNC1=O)C(=O)[C@H](F)Cl)C2(C)C
a: 9

q: # IC50 lookup, item CC[C@@H](C)[C@H](NC(=O)C(F)F)C(=O)N1C[C@H]2[C@@H]([C@H]1C(=O)NN(C[C@@H]1CCNC1=O)C(=O)[C@@H](F)Cl)C2(C)C
a: 34
